Reference source for all entries: ChEMBL document CHEMBL1140387

Target: UniProt P31645
Sequence (P31645 whole entry, looked up): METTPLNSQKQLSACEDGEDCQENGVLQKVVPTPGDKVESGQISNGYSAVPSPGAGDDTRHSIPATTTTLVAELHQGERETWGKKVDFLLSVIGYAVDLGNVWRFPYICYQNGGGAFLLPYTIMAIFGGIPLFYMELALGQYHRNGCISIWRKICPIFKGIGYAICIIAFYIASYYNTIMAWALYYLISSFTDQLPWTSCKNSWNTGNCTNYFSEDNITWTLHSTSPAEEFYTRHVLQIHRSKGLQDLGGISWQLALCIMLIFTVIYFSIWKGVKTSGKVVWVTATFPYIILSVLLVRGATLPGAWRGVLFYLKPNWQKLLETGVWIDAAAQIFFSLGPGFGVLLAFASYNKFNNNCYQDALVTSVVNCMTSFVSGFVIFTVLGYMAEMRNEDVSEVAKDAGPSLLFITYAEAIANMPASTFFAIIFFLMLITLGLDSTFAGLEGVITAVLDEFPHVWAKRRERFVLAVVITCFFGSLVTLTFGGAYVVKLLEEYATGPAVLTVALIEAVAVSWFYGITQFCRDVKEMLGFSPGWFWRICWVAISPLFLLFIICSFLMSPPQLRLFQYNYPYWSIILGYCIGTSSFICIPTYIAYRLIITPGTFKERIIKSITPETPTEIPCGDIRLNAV
Test: Percentage displacement of [3H]citalopram radioligand from serotonin transporter at concentration of 100 nM
readout_type: Activity (%)
Supply the numeric figure in %, leaving out any unit text.

-- ask Test system UniProt P31645; read-out Activity; what value for CNCCCCC1Cc2ccccc2N(c2ccccc2)C1=O (stereo not drawn) ?
-- reply -3

-- ask CNCCCC1Cc2cc(Cl)ccc2N(c2ccc(C)cc2)C1=O (racemic) , same question.
-- reply 15

-- ask CNCCCC1(C)Cc2ccccc2N(c2cc(Cl)cc(Cl)c2)C1=O (racemic) , same question.
-- reply 10

---

Molecular target: UniProt Q01959
Sequence (Q01959 whole entry): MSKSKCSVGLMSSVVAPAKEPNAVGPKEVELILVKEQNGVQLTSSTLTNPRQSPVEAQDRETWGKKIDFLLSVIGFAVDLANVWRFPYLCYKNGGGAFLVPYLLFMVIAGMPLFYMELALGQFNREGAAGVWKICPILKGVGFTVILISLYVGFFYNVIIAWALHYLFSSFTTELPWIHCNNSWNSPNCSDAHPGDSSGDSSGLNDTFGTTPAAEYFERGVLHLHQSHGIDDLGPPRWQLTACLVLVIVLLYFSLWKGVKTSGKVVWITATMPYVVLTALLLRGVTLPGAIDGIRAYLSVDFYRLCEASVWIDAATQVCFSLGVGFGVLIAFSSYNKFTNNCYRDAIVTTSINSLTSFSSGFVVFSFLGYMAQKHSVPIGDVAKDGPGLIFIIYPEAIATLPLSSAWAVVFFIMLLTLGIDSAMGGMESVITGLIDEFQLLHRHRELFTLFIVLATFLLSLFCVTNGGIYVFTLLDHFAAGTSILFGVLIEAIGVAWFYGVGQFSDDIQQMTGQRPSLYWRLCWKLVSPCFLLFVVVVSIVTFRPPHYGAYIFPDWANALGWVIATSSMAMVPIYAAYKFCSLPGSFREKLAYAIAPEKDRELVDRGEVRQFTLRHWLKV
Test: Percentage displacement of [3H]WIN-35428 radioligand from dopamine transporter at concentration of 1000 nM
Category | rule: reported Activity within range, see low: < 7%; moderate: ≥ 7% and < 10%; high: ≥ 10%

-- ask Kindly state the category for this molecule: CNCCCC1(C)Cc2ccccc2N(c2ccc(C(C)C)cc2)C1=O (racemic)
-- reply low

-- ask CCC1(CCCNC)Cc2ccccc2N(c2ccccc2)C1=O (racemic) , same question.
-- reply low

-- ask CNCCC1Cc2ccccc2N(c2ccccc2)C1=O (stereo in doubt) , same question.
-- reply moderate

-- ask CCCC1(CCCNC)Cc2ccccc2N(c2ccc(C)cc2)C1=O (racemic) , same question.
-- reply moderate

-- ask CCCCC1(CCCNC)Cc2ccccc2N(c2ccc(C)cc2)C1=O (racemic) , same question.
-- reply high

-- ask CNCCCC1Cc2ccccc2N(c2ccccc2)C1=O (stereo in doubt) , same question.
-- reply low

-- ask CNCCCC1(C)Cc2ccccc2N(c2cccc(C)c2)C1=O (racemic) , same question.
-- reply moderate

-- ask CNCCCC1(C)Cc2ccccc2N(c2cc(Cl)cc(Cl)c2)C1=O (racemic) , same question.
-- reply high

-- ask CNCCCC1Cc2ccccc2N(c2ccccc2)C1=O (racemic) , same question.
-- reply high

-- ask CNCCCCC1Cc2ccccc2N(c2ccccc2)C1=O (configuration not stated) , same question.
-- reply high
